System: MDR1 (P-gp)
Assay: BBB penetration potential, MDR1-MDCK permeability
Format: in vitro ADME
Conditions: dog, basolateral to apical, pH 7.4, read-out: BBB penetration potential MDCK B-A 10−6 cm/s
readoutType: Papp B→A at 120 min, 5 μM (×10⁻⁶ cm/s)
Answers are plain numbers, in ×10⁻⁶ cm/s.

Batch lookup, Papp B→A at 120 min, 5 μM per entry.
1. O=C1CCCN1c1ccc(C2CCN(c3ccn[nH]3)CC2)cc1 [Compound 101]
2. Cc1ccc(CC2CCN(c3cn[nH]c3)CC2)cc1 [Compound 116]
3. CC(Nc1ccc(C2CCN(c3cn[nH]c3)CC2)cc1)C(F)(F)F (stereo not drawn) [Compound 104]
4. Clc1ccc(CC2CCN(c3cn[nH]c3)CC2)cc1 [Compound 93]
5. COc1ccc(C2CCN(c3cn[nH]c3)CC2)cc1Cl [Compound 64]
6. CC(=O)N(C)c1ccc(C2CCN(c3cn[nH]c3)CC2)c(F)c1 [Compound 69]
7. c1ccc(CC2CCN(c3cn[nH]c3)CC2)cc1 [Compound 3, 4-Benzyl-1-(1H-pyrazol-4-yl)piperidine]

Reply |
1: 46.7; 2: 70.3; 3: 48.9; 4: 40; 5: 34.8; 6: 44.4; 7: 60

Answer for every listed entry: what is its Papp B→A at 120 min, 5 μM? The entries follow.
1. O=C1CCCN1Cc1ccc(C2CCN(c3cn[nH]c3)CC2)cc1 [Compound 83]
2. O=C1CCCN1c1ccc(C2CCN(c3cn[nH]c3)CC2)cc1 [Compound 100]

Reply |
41.6
46.9

* * *

Tested on: 20-HETE formation (CYP4) in RLM
Experiment: Inhibition of 20-HETE formation at 250 or 500 nM in RLM microsomal incubations
Assay type: biochemical, rat
Details: 500 nM compound; RLM 300 μg/ml
# thresholds on RLM % inh. @ 500 nM define classes: bucket 1 = under 2%, bucket 2 = from 2% up to 20%, bucket 3 = 20% and over

In [3]: df
Out[3]:
                        structurestring  category
0  COc1ccc(C2CCN(c3cn[nH]c3)CC2)c(Cl)c1  bucket 1

Ask | Which category fits this record: COc1cc(CC2CCN(c3cn[nH]c3)CC2)ccn1
Reply | bucket 2

Ask | State the class of the molecule shown: O=C(c1ccc(C2CCN(c3ccn[nH]3)CC2)cc1)N1CCCC1
Reply | bucket 1

Ask | In plain terms, what class is Clc1ccc(C2CCN(c3ccn[nH]3)CC2)cc1 ?
Reply | bucket 1

Ask | GET /class?item= COc1cccc(CC2CCN(c3cn[nH]c3)CC2)c1
Reply | bucket 3

Ask | // return the class label for Clc1cccc(CC2CCN(c3cn[nH]c3)CC2)c1
Reply | bucket 3

* * *

Test system: 20-HETE formation (CYP4) in HLM
Experiment: Inhibition of 20-HETE formation at 250 or 500 nM in HLM microsomal incubations
Assay type: biochemical, human
Conditions: 500 nM compound; HLM 300 μg/ml, AA 100 μM, 20 min
Give HLM % inh. @ 500 nM for every item shown.

In [3]: df
Out[3]:
                            structurestring  result
0  O=C(c1ccc(C2CCN(c3cn[nH]c3)CC2)c(F)c1)N1CCCC1   83.1%
1  O=S(=O)(Nc1ccc(C2CCN(c3cn[nH]c3)CC2)cc1)C1CC1   68.7%
2       COc1ccc(C2CCN(c3cn[nH]c3)CC2)c(F)c1  82.00%
3         COc1cccc(CC2CCN(c3cn[nH]c3)CC2)c1  71.00%
4  O=C1CCCN1Cc1ccc(C2CCN(c3cn[nH]c3)CC2)cc1   91.6%

Dear colleague, could you please provide HLM % inh. @ 500 nM for the compounds listed below?
1. Fc1cccc(C2CCN(c3cn[nH]c3)CC2)c1
2. FC(F)(F)c1ccnc(C2CCN(c3ccn[nH]3)CC2)c1
3. FC(F)(F)c1cncc(C2CCN(c3ccn[nH]3)CC2)c1
4. Cc1ccccc1C1CCN(c2ccn[nH]2)CC1

Reply |
1: 80.00%; 2: 15.6%; 3: 0.00%; 4: 20.00%

Each of the following entries comes with a recorded value; kindly state HLM % inh. @ 500 nM for each.
1. COc1ccc(C2CCN(c3ccn[nH]3)CC2)cn1
2. Fc1cccc(C2CCN(c3ccn[nH]3)CC2)c1
3. COc1ccc(C2CCN(c3ccn[nH]3)CC2)cc1F
4. CC(=O)N(C)c1ccc(C2CCN(c3ccn[nH]3)CC2)cc1

Reply |
["35.00%", "67.00%", "82.00%", "20.00%"]

Give HLM % inh. @ 500 nM for each listed item.
1. FC(F)(F)c1ccnc(C2CCN(c3cn[nH]c3)CC2)c1
2. Nc1ccc(C2CCN(c3cn[nH]c3)CC2)cc1

Reply |
37.9%
77.30%

* * *

Test system: 20-HETE formation (CYP4) in HLM
Test: Inhibition of 20-HETE formation at 250 or 500 nM in HLM microsomal incubations
Assay type: biochemical, human
Conditions: 500 nM compound; HLM 300 μg/ml, AA 100 μM, 20 min
Description: To screen the inhibitory effects against 20-HETE formation, compounds were screened in HLM, RLM, RKM and rCYP4F2 microsomal incubations. Compounds dissolved in either 100% methanol or 100% DMSO to yield 10 mM stock solution. […] 20-HETE formation was quantified using a validated UPLC-MS/MS assay and normalized by vehicle group. […] Quantitation of 20-HETE by SRM was performed by monitoring the m/z. Analytical data was acquired and analyzed using Xcaliber 3.0 data system (ThermoFinnigan, San Jose, CA).
readoutType: HLM % inh. @ 500 nM (%)
One number for each entry, in %.

Worked set:
In [3]: df
Out[3]:
                            structurestring          readouttype  recordednumber
0         Clc1ccc(CC2CCN(c3cn[nH]c3)CC2)cc1  HLM % inh. @ 500 nM           93.03
1         COc1cccc(SC2CCN(c3cn[nH]c3)CC2)c1  HLM % inh. @ 500 nM              84
2            c1ccc(N2CCN(c3cn[nH]c3)CC2)cc1  HLM % inh. @ 500 nM           24.50
3   O=C1CCCN1c1ccc(C2CCN(c3ccn[nH]3)CC2)cc1  HLM % inh. @ 500 nM           79.00
4  O=C(c1ccc(C2CCN(c3cn[nH]c3)CC2)cc1)N1CCCC1  HLM % inh. @ 500 nM            84.4
5  O=[N+]([O-])c1ccc(C2CCN(c3cn[nH]c3)CC2)cc1  HLM % inh. @ 500 nM            43.5
6     CC(=O)Nc1ccc(C2CCN(c3cn[nH]c3)CC2)cc1  HLM % inh. @ 500 nM           86.00
7    FC(F)(F)c1cncc(C2CCN(c3cn[nH]c3)CC2)c1  HLM % inh. @ 500 nM            42.8
8   O=C1CCCN1c1ccc(C2CCN(c3cn[nH]c3)CC2)cc1  HLM % inh. @ 500 nM            76.1
9  O=S1(=O)CCc2cc(C3CCN(c4cn[nH]c4)CC3)ccc21  HLM % inh. @ 500 nM           36.50

Count: 7. Required value per item: HLM % inh. @ 500 nM.
1. O=S(=O)(c1ccc(C2CCN(c3cn[nH]c3)CC2)cc1)N1CCCC1
2. c1ccc(OC2CCN(c3cn[nH]c3)CC2)cc1
3. c1ccc(CC2CCN(c3ccn[nH]3)CC2)cc1
4. COc1cncc(C2CCN(c3cn[nH]c3)CC2)c1
5. COc1ccc(SC2CCN(c3ccn[nH]3)CC2)cc1
6. O=S1(=O)CCc2cc(C3CCN(c4ccn[nH]4)CC3)ccc21
7. CCS(=O)(=O)c1ccc(C2CCN(c3cn[nH]c3)CC2)cc1

Reply |
81.3
53.00
59.90
63.30
48
0.00
84.10

Fill in HLM % inh. @ 500 nM for each of the 2 molecules listed.
1. COc1cccc(C2CCN(c3ccn[nH]3)CC2)c1
2. Fc1ccc(SC2CCN(c3cn[nH]c3)CC2)cc1

Reply |
51.70
84.8

* * *

System: 20-HETE formation (CYP4) in HLM
Assay: IC50 determination, 20-HETE formation in HLM
Format: biochemical, human
Settings: HLM 300 μg/ml, AA 100 μM, 12 concentrations
Exam item: assign 1 to entries whose IC50 is below 0.1 µM and 0 to entries at or above 0.1 µM. Note that a value of exactly 0.1 µM receives 0.

>>> df
                 structurestring  category
0  Cc1ccccc1C1CCN(c2cn[nH]c2)CC1         0

Ask | Please check: IC50 for Cc1cccc(C2CCN(c3cn[nH]c3)CC2)c1 , strictly under 0.1 µM or not?
Reply | 0

Ask | IC50 strictly < 0.1 µM for this molecule? c1ccc(CC2CCN(c3ccn[nH]3)CC2)cc1
Reply | 0

Ask | API: query returns whether the molecule falls strictly under 0.1 µM in IC50. Query: COc1cccc(C2CCN(c3ccn[nH]3)CC2)c1
Reply | 0

Ask | hey, is IC50 for COc1cccc(C2CCN(c3cn[nH]c3)CC2)c1 lower than 0.1 µM or not?
Reply | 0

Ask | Record CCS(=O)(=O)c1ccc(C2CCN(c3cn[nH]c3)CC2)cc1 : is its IC50 strictly below 0.1 µM?
Reply | 1

Ask | Please indicate whether the reported IC50 of CC(=O)Nc1ccc(C2CCN(c3cn[nH]c3)CC2)cc1 is strictly below 0.1 µM.
Reply | 1
